# system name: KRAS G12D/RAF1 (Homo sapiens, UniProt P01116, G12D)
# Construct: His6-MBP (N, cleaved yes); made in house; host or cells: E. coli
# Sequence (P01116 with tags, fused parts or gaps isoform P01116-2 G12D): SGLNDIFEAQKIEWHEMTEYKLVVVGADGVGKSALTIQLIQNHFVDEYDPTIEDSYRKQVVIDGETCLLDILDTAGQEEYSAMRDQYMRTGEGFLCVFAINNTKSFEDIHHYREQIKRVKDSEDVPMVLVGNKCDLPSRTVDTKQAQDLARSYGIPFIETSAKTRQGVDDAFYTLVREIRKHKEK
# protocol description: Protein-protein interaction (PPI) HTRF assay KRAS G12D/RAF1
# Assay type: binding
# cond: Table 4
reported endpoint: IC50

>  <compound>
N#Cc1c(N2CCCn3nc(-c4ccccn4)c(Cl)c3C2)nc(OCC2(CN3CCOCC3)CC2)nc1N1CC2(CCc3sc(N)c(C#N)c32)C1

>  <recorded measurement>
100 to 1000 nM

$$$$
>  <compound>
CN(C)C(=O)c1nn2c(c1Cl)CN(c1nc(OC[C@@]34CCCN3C[C@H](F)C4)nc(N3CC4(C3)c3ccccc3CCC4(F)F)c1C#N)CCC2

>  <recorded measurement>
> 100000 nM

$$$$
>  <compound>
CN(C)C(=O)c1nn2c(c1Cl)CN(c1nc(OC[C@@]34CCCN3C[C@H](F)C4)nc(N3CC4(CCCc5sc(N)c(C#N)c54)C3)c1C#N)CCC2

>  <recorded measurement>
1000 to 10000 nM

$$$$
>  <compound>
CN(C)C(=O)c1cc2n(n1)CCCN(c1nc(OC[C@@]34CCCN3C[C@H](F)C4)nc(N3CC4(CCc5sc(N)c(C#N)c54)C3)c1C#N)C2

>  <recorded measurement>
1000 to 10000 nM

$$$$
>  <compound>
N#Cc1c(N2CCCC(=O)CC2)nc(OC[C@@]23CCCN2C[C@H](F)C3)nc1N1CC2(CCc3sc(N)c(C#N)c32)C1

>  <recorded measurement>
10000 to 100000 nM

$$$$
>  <compound>
Cc1nnc(-c2nn3c(c2Cl)CN(c2nc(OC[C@@]45CCCN4C[C@H](F)C5)nc(N4CC5(CCc6sc(N)c(C#N)c65)C4)c2C#N)CCC3)n1C

>  <recorded measurement>
1000 to 10000 nM

$$$$
>  <compound>
N#Cc1c(N2CC3COCC(C2)N3)nc(OC[C@]23CCCN2C[C@@H](F)C3)nc1N1CC2(CCc3sc(N)c(C#N)c32)C1

>  <recorded measurement>
1000 to 10000 nM

$$$$
>  <compound>
CN(CCOc1nc(N2C[C@H]3CC[C@@H](C2)N3)c(C#N)c(N2CC3(CCc4sc(N)c(C#N)c43)C2)n1)C1CCC1

>  <recorded measurement>
10000 to 100000 nM

$$$$
>  <compound>
C[C@@]1(O)CCCN(c2nc(OC[C@@]34CCCN3C[C@H](F)C4)nc(N3CC4(CCc5sc(N)c(C#N)c54)C3)c2C#N)C1

>  <recorded measurement>
1000 to 10000 nM

$$$$
>  <compound>
N#Cc1c(N2C[C@H]3CC[C@@H](C2)N3)nc(OCC2(CN3CCOCC3)CC2)nc1N1CC2(C1)SCc1sc(N)c(C#N)c12

>  <recorded measurement>
< 100 nM

$$$$
>  <compound>
N#Cc1c(N2C[C@H]3CC[C@@H](C2)N3)nc(OC[C@@]23CCCN2C[C@H](F)C3)nc1N1CC2(C1)c1c(sc(N)c1C#N)CC1CC12 (stereo partly drawn)

>  <recorded measurement>
100 to 1000 nM

$$$$
>  <compound>
N#Cc1c(N2C[C@H]3CC[C@@H](C2)N3)nc(OCC2(CN3CCC(F)(F)CC3)CC2)nc1N1CC2(CCCc3sc(N)c(C#N)c32)C1

>  <recorded measurement>
100 to 1000 nM

$$$$

----------
# system name: w.t.KRAS/RAF1 (Homo sapiens, UniProt P01116)
# Construct: His6-MBP (N, cleaved yes)
# Sequence (P01116 with tags, fused parts or gaps isoform P01116-2): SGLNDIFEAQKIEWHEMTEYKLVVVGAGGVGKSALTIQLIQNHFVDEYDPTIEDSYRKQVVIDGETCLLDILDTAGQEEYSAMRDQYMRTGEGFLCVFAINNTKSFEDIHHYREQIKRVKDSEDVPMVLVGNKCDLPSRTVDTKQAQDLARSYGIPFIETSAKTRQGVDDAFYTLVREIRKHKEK
# protocol description: Protein-protein interaction (PPI) HTRF assay w.t.KRAS/RAF1
# cond: Table 3; wtKRAS/RAF1

>  <smiles string>
CN(C)C(=O)c1nn2c(c1Cl)CN(c1nc(OC[C@@]34CCCN3C[C@H](F)C4)nc(N3CC4(CCc5sc(N)c(C#N)c54)C3)c1C#N)CCC2

>  <IC50>
1 to 10 µM

$$$$

----------
Recorded measurements of IC50, one per entry
# system name: KRAS G12D/RAF1 (Homo sapiens, UniProt P01116, G12D)
# Construct: His6-MBP (N, cleaved yes); made in house; host or cells: E. coli
# protocol description: Protein-protein interaction (PPI) HTRF assay KRAS G12D/RAF1
# Format: binding
# cond: Table 4

>  <molecule>
CN(C)C(=O)c1nn2c(c1Cl)CN(c1nc(OC[C@@]34CCCN3C[C@H](F)C4)nc(N3CC4(CCc5sc6[nH]cnc(=O)c6c54)C3)c1C#N)CCC2

>  <IC50>
> 100 µM

$$$$
>  <molecule>
N#Cc1c(N2C[C@H]3CC[C@@H](C2)N3)nc(OCC2(CN3CC[S+]([O-])CC3)CC2)nc1N1CC2(CCc3sc(N)c(C#N)c32)C1

>  <IC50>
1 to 10 µM

$$$$
>  <molecule>
N#Cc1c(N2C[C@H]3CC[C@@H](C2)N3)nc(OCc2cc(Cl)[nH]n2)nc1N1CC2(CCc3sc(N)c(C#N)c32)C1

>  <IC50>
10 to 100 µM

$$$$
>  <molecule>
CN(C)CC1(COc2nc(N3C[C@H]4CC[C@@H](C3)N4)c(C#N)c(N3CC4(CCc5sc(N)c(C#N)c54)C3)n2)CC1(F)F (mixture of isomers)

>  <IC50>
10 to 100 µM

$$$$
>  <molecule>
N#Cc1c(N2C[C@H]3CC[C@@H](C2)N3)nc(OCc2n[nH]cc2Br)nc1N1CC2(CCc3sc(N)c(C#N)c32)C1

>  <IC50>
10 to 100 µM

$$$$
>  <molecule>
CC1CC2(CN(c3nc(OC[C@@]45CCCN4C[C@H](F)C5)nc(N4CCCn5nc(C(=O)N(C)C)c(Cl)c5C4)c3C#N)C2)c2c1sc(N)c2C#N (stereo partly drawn)

>  <IC50>
0.1 to 1 µM

$$$$

----------
# Tested on: AGS cells (KRAS G12D), phospho-ERK
# protocol description: pERK In Cell Western (ICW) assay (Method B), AGS cells
# Type: cell-based
# cond: Homo sapiens, Table 4, pERK, 3 hours, read-out: ICW-AGS
Measured IC50 of individual entries

>  <smiles string>
Cc1nc(-c2nn3c(c2Cl)CN(c2nc(OC[C@@]45CCCN4C[C@H](F)C5)nc(N4CC5(CCc6sc(N)c(C#N)c65)C4)c2C#N)CCC3)no1

>  <IC50>
100 to 1000 nM

$$$$
>  <smiles string>
CN(C)C(=O)c1nn2c(c1Cl)CN(c1nc(OC[C@@]34CCCN3C[C@H](F)C4)nc(N3CC4(CCCc5sc(N)c(C#N)c54)C3)c1C#N)CCC2

>  <IC50>
10 to 100 nM

$$$$
>  <smiles string>
N#Cc1c(N2CCCn3nc(C(=O)C4CC4)c(Cl)c3C2)nc(OC[C@@]23CCCN2C[C@H](F)C3)nc1N1CC2(CCc3sc(N)c(C#N)c32)C1

>  <IC50>
10 to 100 nM

$$$$

----------
IC50 for assorted compounds
# System: AGS cells (KRAS G12D), phospho-ERK
# protocol description: pERK In Cell Western (ICW) assay (Method B), AGS cells
# Assay type: cell-based
# cond: Homo sapiens, Table 4, pERK, 3 hours, read-out: ICW-AGS

>  <smiles string>
CN(C)CC(F)(F)COc1nc(N2C[C@H]3CC[C@@H](C2)N3)c(C#N)c(N2CC3(CCc4sc(N)c(C#N)c43)C2)n1

>  <system name>
AGS cells (KRAS G12D), phospho-ERK

>  <IC50>
1 to 10 µM

$$$$
>  <smiles string>
CN(CCOc1nc(N2C[C@H]3CC[C@@H](C2)N3)c(C#N)c(N2CC3(CCc4sc(N)c(C#N)c43)C2)n1)C1CCC1

>  <system name>
AGS cells (KRAS G12D), phospho-ERK

>  <IC50>
1 to 10 µM

$$$$
>  <smiles string>
Cn1c(-c2cc3n(n2)CCCN(c2nc(OC[C@@]45CCCN4C[C@H](F)C5)nc(N4CC5(CCc6sc(N)c(C#N)c65)C4)c2C#N)C3)nc2ccccc21

>  <system name>
AGS cells (KRAS G12D), phospho-ERK

>  <IC50>
1 to 10 µM

$$$$

----------
# system name: KRAS G12D/RAF1 (Homo sapiens, UniProt P01116, G12D)
# Construct: His6-MBP (N, cleaved yes); made in house; host or cells: E. coli
# protocol description: Protein-protein interaction (PPI) HTRF assay KRAS G12D/RAF1
# Type: binding
# cond: Table 4
pIC50: −log10 of the molar value.
# maps each entry to its pIC50

>  <compound>
CO/N=C1/CCCN(c2nc(OC[C@@]34CCCN3C[C@H](F)C4)nc(N3CC4(CCc5sc(N)c(C#N)c54)C3)c2C#N)CC1 [Compound 59]

>  <pIC50>
4.00 to 5.00

$$$$
>  <compound>
N#Cc1c(N2CC3(CCc4sc(N)c(C#N)c43)C2)nc(OC[C@@]23CCCN2C[C@H](F)C3)nc1N1CCC[C@]2(C1)NC(=O)NC2=O [Compound 11]

>  <pIC50>
6.00 to 7.00

$$$$
>  <compound>
CO[C@H]1CN(CC2(COc3nc(N4C[C@H]5CC[C@@H](C4)N5)c(C#N)c(N4CC5(CCc6sc(N)c(C#N)c65)C4)n3)CC2)C[C@@H]1F [Compound 81]

>  <pIC50>
5.00 to 6.00

$$$$
>  <compound>
N#Cc1c(N2C[C@H]3COC[C@@H](C2)N3)nc(OCC2(CN3CCOCC3)CC2)nc1N1CC2(CCc3sc(N)c(C#N)c32)C1 [Compound 42]

>  <pIC50>
5.00 to 6.00

$$$$
>  <compound>
Cn1c(-c2cc3n(n2)CCCN(c2nc(OC[C@@]45CCCN4C[C@H](F)C5)nc(N4CC5(CCc6sc(N)c(C#N)c65)C4)c2C#N)C3)nc2ccccc21 [Compound 29]

>  <pIC50>
4.00 to 5.00

$$$$
>  <compound>
N#Cc1c(N2C[C@H]3CC[C@@H](C2)N3)nc(OCC2(CN3CCOCC3)CC2)nc1N1CC2(CSc3sc(N)c(C#N)c32)C1 [Compound 73]

>  <pIC50>
6.00 to 7.00

$$$$

Data credit: patent US12145947B2
